Recorded viability, T/C for the following compounds
# Tested on: 616215-338-R-J1-PDC spheroids with HUVEC/MSC, viability
# Procedure Text: Anticancer human tumor 616215-338-R-J1-PDC patient-derived colon adenocarcinoma cell line growth inhibition [PI3K]
# Condition Label: second compound 10 µM; first compound 0.0316 µM; stronger effect = lower value
Use % as the unit, but write only the number.

Check out these entries, answers already filled in.
Compound	viability, T/C / %
C#Cc1c(F)ccc2cc(O)cc(-c3ncc4c(N5CC6CCC(C5)N6)nc(OCC56CCCN5CC(F)C6)nc4c3F)c12 (stereo unspecified) + Cc1nc(NC(=O)N2CCCC2C(N)=O)sc1-c1ccnc(C(C)(C)C(F)(F)F)c1	88.3
Cn1ncnc1[C@H]1c2n[nH]c(=O)c3cc(F)cc(c23)N[C@@H]1c1ccc(F)cc1 + CC(Nc1ncnc2nc[nH]c12)c1cc2cccc(Cl)c2c(=O)n1-c1ccccc1	100
CCN1CCN(Cc2ccc(Nc3ncc(F)c(-c4cc(F)c5nc(C)n(C(C)C)c5c4)n3)nc2)CC1 + Cc1nc(NC(=O)N2CCCC2C(N)=O)sc1-c1ccnc(C(C)(C)C(F)(F)F)c1	92.3

Qu. Notebook: pull reported viability, T/C for 616215-338-R-J1-PDC spheroids with HUVEC/MSC, viability, entry CC(=O)c1c(C)c2cnc(Nc3ccc(N4CCNCC4)cn3)nc2n(C2CCCC2)c1=O + CC(Nc1ncnc2nc[nH]c12)c1cc2cccc(Cl)c2c(=O)n1-c1ccccc1
Ans. 104

Qu. Notebook: pull reported viability, T/C for 616215-338-R-J1-PDC spheroids with HUVEC/MSC, viability, entry CCCS(=O)(=O)Nc1ccc(F)c(C(=O)c2c[nH]c3ncc(-c4ccc(Cl)cc4)cc23)c1F + CC(Nc1ncnc2nc[nH]c12)c1cc2cccc(Cl)c2c(=O)n1-c1ccccc1
Ans. 115

Qu. Notebook: pull reported viability, T/C for 616215-338-R-J1-PDC spheroids with HUVEC/MSC, viability, entry Cn1ncc(Cl)c1-c1cc(C(=O)NC(CN)Cc2cccc(F)c2)sc1Cl (stereo unspecified) + CC(Nc1ncnc2nc[nH]c12)c1cc2cccc(Cl)c2c(=O)n1-c1ccccc1
Ans. 98.3

Qu. Notebook: pull reported viability, T/C for 616215-338-R-J1-PDC spheroids with HUVEC/MSC, viability, entry Cn1ncnc1[C@H]1c2n[nH]c(=O)c3cc(F)cc(c23)N[C@@H]1c1ccc(F)cc1 + Cc1nc(NC(=O)N2CCCC2C(N)=O)sc1-c1ccnc(C(C)(C)C(F)(F)F)c1
Ans. 81.4

Qu. Notebook: pull reported viability, T/C for 616215-338-R-J1-PDC spheroids with HUVEC/MSC, viability, entry CC(Cn1ccc(-c2ccc(C#N)c(Cl)c2)n1)NC(=O)c1cc(C(C)O)[nH]n1 (stereo unspecified) + CC(Nc1ncnc2nc[nH]c12)c1cc2cccc(Cl)c2c(=O)n1-c1ccccc1
Ans. 99.4

Qu. Notebook: pull reported viability, T/C for 616215-338-R-J1-PDC spheroids with HUVEC/MSC, viability, entry CC1(C)CCC(CN2CCN(c3ccc(C(=O)NS(=O)(=O)c4ccc(NCC5CCOCC5)c([N+](=O)[O-])c4)c(Oc4cnc5[nH]ccc5c4)c3)CC2)=C(c2ccc(Cl)cc2)C1 + Cc1nc(NC(=O)N2CCCC2C(N)=O)sc1-c1ccnc(C(C)(C)C(F)(F)F)c1
Ans. 92.8

Qu. Notebook: pull reported viability, T/C for 616215-338-R-J1-PDC spheroids with HUVEC/MSC, viability, entry CNC(=O)c1ccc(N2C(=S)N(c3ccc(C#N)c(C(F)(F)F)c3)C(=O)C2(C)C)cc1F + Cc1nc(NC(=O)N2CCCC2C(N)=O)sc1-c1ccnc(C(C)(C)C(F)(F)F)c1
Ans. 90.6

Qu. Notebook: pull reported viability, T/C for 616215-338-R-J1-PDC spheroids with HUVEC/MSC, viability, entry Cn1nccc1Nc1nccc(-c2ccn(C(CO)c3ccc(Cl)c(F)c3)c(=O)c2)n1 (stereo unspecified) + Cc1nc(NC(=O)N2CCCC2C(N)=O)sc1-c1ccnc(C(C)(C)C(F)(F)F)c1
Ans. 94.2

====

# System: 616215-338-R-J1-PDC spheroids with HUVEC/MSC, viability
# Procedure Text: Anticancer human tumor 616215-338-R-J1-PDC cell line growth inhibition [PI3K];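 also: spheroids exposed to agents for seven days before the viability read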
# Condition Label: second compound 10 µM; first compound 10 µM; stronger effect = lower value
# Source text: Combinatorial screen of targeted agents with the PI3K inhibitors inavolisib, alpelisib, duvelisib, and copanlisib in multi-cell type tumor spheroids A high-throughput screen of multi-cell type tumor spheroids was designed to identify active combinations of targeted small molecules and PI3K pathway inhibitors. […] Compounds. […] If the clinical Cmax for an agent had not been determined, the highest concentration tested was 10 microM. […]
Rule: viability, T/C below 50% gives 1. Equal to or above 50% gives -1.

Molecule	Group
C#Cc1c(F)ccc2cc(O)cc(-c3ncc4c(N5CC6CCC(C5)N6)nc(OCC56CCCN5CC(F)C6)nc4c3F)c12 (stereo not given) + Cc1nc(NC(=O)N2CCCC2C(N)=O)sc1-c1ccnc(C(C)(C)C(F)(F)F)c1	1

Qu. Quick check: viability, T/C of CC1(C)CCC(CN2CCN(c3ccc(C(=O)NS(=O)(=O)c4ccc(NCC5CCOCC5)c([N+](=O)[O-])c4)c(Oc4cnc5[nH]ccc5c4)c3)CC2)=C(c2ccc(Cl)cc2)C1 + CC(Nc1ncnc2nc[nH]c12)c1cc2cccc(Cl)c2c(=O)n1-c1ccccc1 under 50%?
Ans. 1

Qu. Quick check: viability, T/C of C=CC(=O)N1CCN(c2nc(=O)n(-c3c(C)ccnc3C(C)C)c3nc(-c4c(O)cccc4F)c(F)cc23)C(C)C1 (stereo not given) + Cc1nc(NC(=O)N2CCCC2C(N)=O)sc1-c1ccnc(C(C)(C)C(F)(F)F)c1 under 50%?
Ans. -1

Qu. Quick check: viability, T/C of CCCS(=O)(=O)Nc1ccc(F)c(C(=O)c2c[nH]c3ncc(-c4ccc(Cl)cc4)cc23)c1F + Cc1nc(NC(=O)N2CCCC2C(N)=O)sc1-c1ccnc(C(C)(C)C(F)(F)F)c1 under 50%?
Ans. 1

Qu. Quick check: viability, T/C of CNC(=O)c1ccc(N2C(=S)N(c3ccc(C#N)c(C(F)(F)F)c3)C(=O)C2(C)C)cc1F + Cc1nc(NC(=O)N2CCCC2C(N)=O)sc1-c1ccnc(C(C)(C)C(F)(F)F)c1 under 50%?
Ans. -1

Qu. Quick check: viability, T/C of CNC(=O)c1ccc(N2C(=S)N(c3ccc(C#N)c(C(F)(F)F)c3)C(=O)C2(C)C)cc1F + CC(Nc1ncnc2nc[nH]c12)c1cc2cccc(Cl)c2c(=O)n1-c1ccccc1 under 50%?
Ans. -1

Qu. Quick check: viability, T/C of CC1(C)CCC(CN2CCN(c3ccc(C(=O)NS(=O)(=O)c4ccc(NCC5CCOCC5)c([N+](=O)[O-])c4)c(Oc4cnc5[nH]ccc5c4)c3)CC2)=C(c2ccc(Cl)cc2)C1 + Cc1nc(NC(=O)N2CCCC2C(N)=O)sc1-c1ccnc(C(C)(C)C(F)(F)F)c1 under 50%?
Ans. 1

Qu. Quick check: viability, T/C of CC(Cn1ccc(-c2ccc(C#N)c(Cl)c2)n1)NC(=O)c1cc(C(C)O)[nH]n1 (stereo not given) + CC(Nc1ncnc2nc[nH]c12)c1cc2cccc(Cl)c2c(=O)n1-c1ccccc1 under 50%?
Ans. -1

Qu. Quick check: viability, T/C of Cn1nccc1Nc1nccc(-c2ccn(C(CO)c3ccc(Cl)c(F)c3)c(=O)c2)n1 (stereo not given) + CC(Nc1ncnc2nc[nH]c12)c1cc2cccc(Cl)c2c(=O)n1-c1ccccc1 under 50%?
Ans. 1

Qu. Quick check: viability, T/C of Cn1ncc(Cl)c1-c1cc(C(=O)NC(CN)Cc2cccc(F)c2)sc1Cl (stereo not given) + Cc1nc(NC(=O)N2CCCC2C(N)=O)sc1-c1ccnc(C(C)(C)C(F)(F)F)c1 under 50%?
Ans. 1

====

# Test system: 616215-338-R-J1-PDC spheroids with HUVEC/MSC, viability
# Procedure Text: Anticancer human tumor 616215-338-R-J1-PDC cell line growth inhibition [PI3K];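 also: spheroids exposed to agents for seven days before the viability read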
# Condition Label: second compound 10 µM; first compound 0.000316 µM; stronger effect = lower value
Attribute Measured: viability, T/C (%)
Use % as the unit, but write only the number.

Compound	viability, T/C (%)
Cn1ncnc1[C@H]1c2n[nH]c(=O)c3cc(F)cc(c23)N[C@@H]1c1ccc(F)cc1 + Cc1nc(NC(=O)N2CCCC2C(N)=O)sc1-c1ccnc(C(C)(C)C(F)(F)F)c1	107
CC(C)n1nc(-c2ccc3oc(N)nc3c2)c2c(N)ncnc21 + Cc1nc(NC(=O)N2CCCC2C(N)=O)sc1-c1ccnc(C(C)(C)C(F)(F)F)c1	94.4
CC(C)n1nc(-c2ccc3oc(N)nc3c2)c2c(N)ncnc21 + CC(Nc1ncnc2nc[nH]c12)c1cc2cccc(Cl)c2c(=O)n1-c1ccccc1	110

Qu. Param item = Cn1ncnc1[C@H]1c2n[nH]c(=O)c3cc(F)cc(c23)N[C@@H]1c1ccc(F)cc1 + CC(Nc1ncnc2nc[nH]c12)c1cc2cccc(Cl)c2c(=O)n1-c1ccccc1 ; retrieve measured viability, T/C.
Ans. 111

Qu. Param item = CC(=O)c1c(C)c2cnc(Nc3ccc(N4CCNCC4)cn3)nc2n(C2CCCC2)c1=O + Cc1nc(NC(=O)N2CCCC2C(N)=O)sc1-c1ccnc(C(C)(C)C(F)(F)F)c1 ; retrieve measured viability, T/C.
Ans. 97.5

Qu. Param item = CC(=O)c1c(C)c2cnc(Nc3ccc(N4CCNCC4)cn3)nc2n(C2CCCC2)c1=O + CC(Nc1ncnc2nc[nH]c12)c1cc2cccc(Cl)c2c(=O)n1-c1ccccc1 ; retrieve measured viability, T/C.
Ans. 97.8
